Exercise: state measured activity change, negative = inhibition for each of the compounds provided.
- testProtocol: T. gondii ME49Luc in HeLa cells, luciferase assay, 72 h, no IFN-y (AID 1259421)
- appliedConditions: hits give low values, concentration not given here
The whole screen tested about 6,400 compounds, of which about 610 (9.5%) were called active. The full list was thinned out, with actives kept by preference.
One number for each entry, in %.

>>> quantitativereadout("O=c1c(OC2OC(CO)C(O)C(O)C2O)c(-c2ccc(O)c(O)c2)oc2cc(O)cc(O)c12 (stereo not drawn)")
-1.42
>>> quantitativereadout("COC(=O)[C@@H]1CC(=O)O[C@H](C)C/C=C/C=C/[C@H](O)[C@H](C)C[C@H](CC=O)[C@H](OC2O[C@H](C)[C@@H](OC3C[C@@](C)(O)[C@@H](OC(=O)CC(C)C)[C@H](C)O3)[C@H](N(C)C)[C@H]2O)[C@H]1OC (stereo partly drawn)")
-63.5

Your task in this section: give activity change, negative = inhibition for each listed record.
1. O=C(Nc1cn[nH]c1-c1nc2ccc(CN3CCOCC3)cc2[nH]1)NC1CC1
2. CCOCCn1c(C2CCN(CCc3ccc(C(C)(C)C(=O)O)cc3)CC2)nc2ccccc21
3. Cc1ccc(OCC(O)C(C)NC(C)C)c2c1CCC2 (stereo not drawn)
4. CN1C(C(=O)Nc2ccccn2)C(=O)c2sc(Cl)cc2S1(=O)=O (stereo not drawn)
5. C[C@]12C=CC(=O)C=C1CCC1C2C(=O)C[C@@]2(C)C1CC[C@]2(O)C(=O)CO (stereo partly drawn)
6. CN[C@H](C(=O)N[C@H](C(=O)N(C)[C@H](/C=C(\C)C(=O)O)C(C)C)C(C)(C)C)C(C)(C)c1ccccc1

1: -84.3; 2: 20.9; 3: 14.3; 4: 6.43; 5: -0.495; 6: -73.6
